- System: SF-539
- assayProcedure: NCI tumour cell line growth inhibition, 48 h
Activity calls are given as the source filed them. Rule as the data show it: active = GI50 up to about 1.1 µM and inactive = higher.
measuredQuantity: GI50

CCCCCC1C2C(=O)NC(=O)C1C(=O)NC2=O (stereo unspecified)	> 100 µM (inactive)
CN(/N=C/c1cccc2cccnc12)c1ccc(Cl)cc1[N+](=O)[O-]	> 100 µM (inactive)
O=c1cc2ccccc2nn1Cc1ccccc1Cl	> 100 µM (inactive)
CSC(C1c2ccccc2N(C)c2[nH]c(=O)n(C)c(=O)c21)S(=O)(=O)c1ccc(C)cc1 (stereo unspecified)	42.7 µM (inactive)
Cc1ccc(S(=O)(=O)N/C(=C\C=C\c2ccccc2)C(=O)C(C)(C)C)cc1	37.9 µM (inactive)
S=C(N/N=C/c1ccccc1)NC12CC3CC(CC(C3)C1)C2	12.4 µM (inactive)
COc1ccc(/C=C2/SC(c3ccc(Cl)cc3)N(NC(=O)CCCCCCCCC(=O)NN3C(=O)/C(=C\c4ccc(OC)c(OC)c4)SC3c3ccc(Cl)cc3)C2=O)cc1OC (stereo unspecified)	29.2 µM (inactive)
Sc1nc(S)nc(Oc2ccc(Cl)c(Cl)c2)n1	> 44.8 µM (inactive)

Query block: Suppose we examine the molecule `CSC(Cc1ccc2c(c1)Sc1ccccc1O2)=[N+]1CCOCC1` ; what GI50 value has been reported?
Result block: 74.6 µM (inactive)

Query block: // query GI50 value for entry `N#Cc1ccc(C(=O)/C=C/c2ccc(O)c(O)c2)cc1`
Result block: 15.6 µM (inactive)

Query block: Looking for the measured GI50 of CC12CCC(C(=O)N3CC=CCC3)(OC1=O)C2(C)C (stereo unspecified) , can you help?
Result block: > 100 µM (inactive)

Query block: Which GI50 reading was recorded for the molecule `COC(=O)c1c(C(=O)OC)c2ccccn2c1-c1cc(OC)c(Br)c(=O)o1` ?
Result block: 56.8 µM (inactive)

Query block: Which GI50 is reported for this molecule? `O=c1[nH]nc(Cc2ccc(Cl)cc2)n1/N=C/c1c[nH]c2ccccc12`
Result block: > 100 µM (inactive)

Query block: Request the reported GI50 associated with `COc1cc(OC)cc(Oc2nc3c(N)cc(C(F)(F)F)cc3nc2-c2ccccc2)c1`
Result block: 99.3 µM (inactive)

Query block: Looking for the measured GI50 of `O=C(O)CCn1cnc2c(S)ncnc21` , can you help?
Result block: > 100 µM (inactive)

Query block: GET /values?readout=GI50&item= `O=Cc1c2n(c3ccccc13)N[C@@](Cc1ccc(O)cc1)(C(=O)O)C2`
Result block: > 100 µM (inactive)

Query block: Fill blank: measured GI50 of the molecule CC(=O)O[C@H](C[C@@H](C)[C@H]1C(=O)[C@H](O)[C@@]2(C)C3CC[C@H]4C(C)(C)[C@@H](OC5OCC(O)C(O)C5O)CC[C@@]45C[C@@]35CC[C@]12C)[C@@H]1OC1(C)C (stereo partly specified) is ____.
Result block: 16.3 µM (inactive)

Query block: Recorded GI50 of `CN1CCN(Cc2ccc(C(=S)Nc3ccccc3)s2)CC1` , please.
Result block: 82.4 µM (inactive)

Query block: Give its GI50 value. Item: `CC1=NN(C(=O)c2ccc(Cl)cc2)C(=O)/C1=C/c1ccc(O)cc1`
Result block: > 100 µM (inactive)

Query block: Name the recorded GI50 for `CC(CC(=O)O)(CC(=O)O)C(=O)O` .
Result block: > 100 µM (inactive)

Query block: Item `O=C(CSc1nnc(Cc2ccccc2)o1)Nc1ccc([N+](=O)[O-])cc1` has what recorded GI50?
Result block: > 100 µM (inactive)
